Target: hemoglobin vesicle (methemoglobin formation) (Homo sapiens, UniProt P68871+P69905)
Construct: obtained by purification of human red cells derived from the donated blood; from tissue; host or cells: human red cells from donated blood
Sequence (P69905 2-142 limits assumed): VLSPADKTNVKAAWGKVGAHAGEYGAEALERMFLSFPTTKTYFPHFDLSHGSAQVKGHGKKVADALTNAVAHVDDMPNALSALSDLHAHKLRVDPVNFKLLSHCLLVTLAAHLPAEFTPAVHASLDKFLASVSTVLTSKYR
Sequence (P68871 2-147 limits assumed): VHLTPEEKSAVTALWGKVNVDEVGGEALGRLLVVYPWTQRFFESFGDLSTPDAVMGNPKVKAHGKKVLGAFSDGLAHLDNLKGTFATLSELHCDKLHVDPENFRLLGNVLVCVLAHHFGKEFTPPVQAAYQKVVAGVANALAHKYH
Assay: Autoxidation of hemoglobin vesicle in the atmospheric air (37° C.), rate of methemoglobin from absorbance ratio 405/430 nm
Format: biochemical
Conditions: concentration 1 mM; control 1.3
Experimental: Otherwise, such components were not added to the above hemoglobin solution. […] Each sample was collected over time. Thereafter, the rate of methemoglobin was calculated from the ratio of the absorbance of the hemoglobin vesicle solution at 405 nm to that of at 430 nm. […] Thereafter, the rate of 50% methemoglobin formation was measured in the same manner as in Example 1. Thereafter, the time required for 50% methemoglobin formation was measured in the same manner as in Example 1.
Observed Property: Initial rate of metHb formation (% hr)

INSERT INTO assay_data (molecule, recorded_number) VALUES
  ('O=C(O)Cc1ccc(O)cc1 [p-hydroxyphenyl acetic acid]', 1.7),
  ('Oc1ccccc1', 1.3),
  ('O=c1c(O)c(-c2ccc(O)cc2)oc2cc(O)cc(O)c12', 3.1),
  ('O=c1cc(-c2ccc(O)cc2)oc2cc(O)cc(O)c12', 1.4),
  ('N[C@@H](Cc1ccc(O)cc1)C(=O)O', 0.9),
  ('O=C(O[C@@H]1Cc2c(O)cc(O)cc2O[C@@H]1c1cc(O)c(O)c(O)c1)c1cc(O)c(O)c(O)c1 [Epigallocatechin gallate]', 3.4),
  ('O=C(O)CCc1ccc(O)cc1 [3-(p-hydroxyphenyl)pronionic acid, 3-(p-hydroxy-phenyl)pronionic acid]', 1.0);

###

Target: hemoglobin vesicle (methemoglobin formation) (Homo sapiens, UniProt P68871+P69905)
Construct: obtained by purification of human red cells derived from the donated blood; from tissue; host or cells: human red cells from donated blood
Test: Autoxidation of hemoglobin vesicle in the atmospheric air (37° C.), rate of methemoglobin from absorbance ratio 405/430 nm
Assay type: biochemical
Settings: Table 1; concentration 1 mM; control 34.0
# note: exactly 30 h is not below, so it is Criterion not met; use Criterion met for Time required for 50% metHb formation strictly under it

INSERT INTO measurements (compound, qualitative_label) VALUES
  ('O=c1cc(-c2ccc(O)cc2)oc2cc(O)cc(O)c12', 'Criterion not met'),
  ('O=c1c(O)c(-c2ccc(O)cc2)oc2cc(O)cc(O)c12', 'Criterion met'),
  ('Oc1ccccc1', 'Criterion not met'),
  ('O=C(O)CCc1ccc(O)cc1 [3-(p-hydroxyphenyl)pronionic acid, 3-(p-hydroxy-phenyl)pronionic acid]', 'Criterion not met'),
  ('N[C@@H](Cc1ccc(O)cc1)C(=O)O', 'Criterion not met'),
  ('O=C(O[C@@H]1Cc2c(O)cc(O)cc2O[C@@H]1c1cc(O)c(O)c(O)c1)c1cc(O)c(O)c(O)c1 [Epigallocatechin gallate]', 'Criterion met');

Taken from patent US20060088583A1.
